Entry source: the supplement of paper PMC10065799

target: c-Src SH2; test: SH2 binding enrichment of the phosphorylated peptide, bacterial display (enrichment ratio); higher = better substrate or ligand; peptides without Tyr show the background;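 also: peptide library displayed on the E. coli surface as eCPX fusions, selected cells deep-sequenced, score is each peptide's frequency after selection divided by its frequency in the input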
Answer False if SH2 binding enrichment is under 0.5, and True if it is 0.5 or more.

Ask: Please indicate if the recorded SH2 binding enrichment for TLERHYEELQA [SPTBN2_Y834] meets or exceeds 0.5.
Result: True

Ask: Is SH2 binding enrichment at least 0.5? Consider RESYKYFPSSL [CXXC1_Y218]
Result: True

Ask: Item VASSLYDIFAR [GLB1_Y294_L297F] with SH2 binding enrichment of 0.5 or above?
Result: True

Ask: // inclusive: SH2 binding enrichment at least 0.5? input: LEQRPYRRGSE [KCNJ12_Y427_E430G]
Result: False

Ask: Given MKGEFYRFLAE [YWHAG_Y131_D129E_YF] , state whether its SH2 binding enrichment is at least 0.5.
Result: False

Ask: Textbook exercise: given the entry RRVLVYGDRGA [QDPR_Y16_G18D] , state whether its SH2 binding enrichment is greater than or equal to 0.5.
Result: False

Ask: Would you say QLFGPYLRIHA [BSCL2_Y213_A212P_YF] shows SH2 binding enrichment at minimum 0.5?
Result: True

Ask: Textbook exercise: given the entry EEKKKYYDAKI [CASP5_Y103_T106A] , state whether its SH2 binding enrichment is greater than or equal to 0.5.
Result: True

Ask: Dear colleague, could you confirm whether RNYGTYTAGLS [RHBDD1_Y264_D262G] has SH2 binding enrichment at or above 0.5?
Result: True

Ask: Please indicate if the recorded SH2 binding enrichment for IRRIAYEFVEM [ADA_Y84_K80R] meets or exceeds 0.5.
Result: True

Ask: Is SH2 binding enrichment at least 0.5? Consider PNATLYKMSSI [SERPINA7_Y40]
Result: False

Ask: Confirm if SH2 binding enrichment reported for the sequence PESCFYKESWL [IQGAP2_Y630_L629F] is 0.5 or above.
Result: True

Ask: State whether the measured SH2 binding enrichment reaches 0.5, counting equality as reaching it, for ALECLYHREKR [TEKT5_Y195]
Result: False

Ask: Threshold query (SH2 binding enrichment >= 0.5) on SIKDKYLTALF [KCNH2_Y611_V612L_YF]
Result: True

Ask: Please tell me: is the sequence EHIEFYELDKK [PMM2_Y145_R141H] at or over 0.5 in terms of SH2 binding enrichment?
Result: True

Ask: Does the reported SH2 binding enrichment for TLQSMYGCDLG [HLA-B_Y123_V127L] fall at or above the 0.5 mark?
Result: True

Ask: Can GESQGYDIMEP [MSH2_Y863] be said to have SH2 binding enrichment at or above 0.5?
Result: True

Ask: Item ISSLPYMKMIF [SLC4A11_Y853_M848I] with SH2 binding enrichment of 0.5 or above?
Result: True

Ask: Decide: SH2 binding enrichment of SFMVRYNQPRV [GRIN2D_Y736_YF] >= 0.5?
Result: True

Ask: Answer whether SH2 binding enrichment of ENKGVYVLMSG [IVD_Y277] is greater than or equal to 0.5.
Result: True

Ask: Please indicate if the recorded SH2 binding enrichment for QLQTNYPSSDN [MAX_Y115] meets or exceeds 0.5.
Result: True

Ask: Hello, I need to know if SFPREYGSQEG [RBM10_Y48_YF] has measured SH2 binding enrichment not below 0.5. Thanks!
Result: False

Ask: Check if SH2 binding enrichment >= 0.5 (inclusive). Item: RPYSPYIIRGM [LRP5_Y1531_R1529S]
Result: True

Ask: Determine whether this sequence has SH2 binding enrichment no lower than 0.5: EKKKKYMLPLD [DNM2_Y563_E560K]
Result: True

Ask: Dear colleague, could you confirm whether GVYSRHFTTYD [CLCA1_Y661_Y661H] has SH2 binding enrichment at or above 0.5?
Result: False

Ask: Hi, just wondering whether FEEDSYVKRSQ [RET_Y905_YF] shows SH2 binding enrichment of 0.5 or higher.
Result: True

Ask: For this sequence, is measured SH2 binding enrichment 0.5 or higher? FKEQGYHRLPS [RIN1_Y681_P686S_YF]
Result: True

Ask: Given the entry SRNSKYNAEST [PSEN1_Y315_K311R] , answer whether its SH2 binding enrichment meets or surpasses 0.5.
Result: False
